# Tested on: MDA-MB-435 melanoma
# METHOD: NCI-60 one-dose screen, 48 h (100 = growth as untreated, 0 = no growth, -100 = all killed)
# SETUP CONDITIONS: 10 µM unless noted
# Procedure: Growth inhibition of the MDA-MB-435 human Melanoma tumor cell line is measured as a screen for anti-cancer activity. Cells are grown in 96 well plates and exposed to the test compound for 48 hours. Compounds are tested at a single concentration, which is 10^-5 M for most compounds. The reported endpoint is percent growth (GI% or GIPRCNT), where numbers from 0 - 100% represent growth inhibition, and numbers from -100% - 0 represent cell death. […]
About 83,000 compounds went through this panel and 20% of them were active in at least one assay; those are over-represented in the sample as a whole.

{"columns": ["COMPOUND", "VALUE UNITS", "growth"],
 "data": [
  ["O=[N+]([O-])c1ccc(C2N(Cc3ccc(Cl)cc3)CCN2Cc2ccc(Cl)cc2)cc1", "%", 91.5],
  ["NC(=S)Nc1ccc2c(c1)Cc1ccccc1-2", "%", 110],
  ["CCc1oc2ccccc2c1C(=O)c1cc(Br)c(O)c(Br)c1", "%", -11.1],
  ["O=[N+]([O-])c1ccc(Oc2ccccc2Cl)c([N+](=O)[O-])c1", "%", 81.5],
  ["COC(=O)c1nc(=S)[nH]c(C(=O)OC)c1C(=O)c1ccc(Cl)c(Cl)c1", "%", 106],
  ["O=[N+]([O-])c1ccc(C(Br)c2ccc([N+](=O)[O-])cc2)cc1", "%", 64.8],
  ["Nc1ccc(C(=O)/C=C/c2ccccc2)cc1", "%", 96.8],
  ["COc1cc(/C=C2\\SC(=S)N(/C=C/c3nc4ccccc4[nH]c3=O)C2=O)cc(OC)c1OC", "%", 81.9],
  ["NC(=Nc1nc(-c2ccccn2)cc2ccccc12)c1ccccn1", "%", 22.9],
  ["CN(C)c1ccc(/C=C/c2nccc3ccccc23)cc1", "%", 55.7],
  ["CC(=O)OC1CC2CCC1(C)C2(C)C (stereo not drawn)", "%", 96.4],
  ["COc1c(C)c2c(c(O)c1C/C=C(\\C)CCC(=O)O)C(=O)OC2", "%", 30.1],
  ["S=c1[nH]c2cc(Cl)ccc2s1", "%", 98.8],
  ["Oc1ccc(Nc2ccc3ccccc3c2)cc1", "%", 51.3],
  ["O=C1c2ccccc2Cc2cccc(Cl)c21", "%", 120],
  ["CCc1cccc(CC)c1N1C(=O)C=CC1=O", "%", 111],
  ["NC(=S)N/N=C\\c1nccc2c(C(F)(F)F)cccc12", "%", 32.6],
  ["O/N=C1\\c2ccccc2-c2ccc(F)cc21", "%", 114],
  ["Cc1cc(Br)c2nsnc2c1[N+](=O)[O-]", "%", 21.1],
  ["Cc1cc(C(=O)c2ccc(Cl)cc2)ccc1O", "%", 95.6],
  ["COC(=O)C(=[N+]=[N-])C(=O)c1ccc([N+](=O)[O-])o1", "%", 103],
  ["Cc1nc(Sc2nc3ccc([N+](=O)[O-])cc3s2)sc1C", "%", 29.6],
  ["Cc1cc(N/N=C/c2ccccn2)nc2ccccc12", "%", 29.6]
]}
